# PROCEDURE_DETAILS: A549 cell viability effects, profiling panel, calcein-AM fluorescence, 48 h, basal (AID 1162); further: test concentration not given here
# SETTINGS: higher = more signal
Returns T if the recorded z-score is greater than or equal to 0.1, and F otherwise.

Assess whether reported z-score for COCCOC(=O)N1C(=O)[C@@]2(c3cc(C#CCNC(N)=O)ccc31)[C@H](c1ccccc1OCCO)N1[C@H](c3ccccc3)[C@H](c3ccccc3)OC(=O)[C@H]1[C@@H]2C(=O)N1CCN(c2ncccn2)CC1 sits at 0.1 or higher.
F

Assess whether reported z-score for C#CCCCON=C1C[C@@H](O)[C@@H](O)[C@@H]2[C@@H]3C(=O)N(c4cccc(Oc5ccccc5)c4)C(=O)[C@@H]3CC[C@@H]12 sits at 0.1 or higher.
F

Assess whether reported z-score for COCCOC(=O)N1C(=O)[C@@]2(c3cc(C#CCNC(N)=O)ccc31)[C@H](c1ccc(O)cc1)N1[C@H](c3ccccc3)[C@H](c3ccccc3)OC(=O)[C@H]1[C@@H]2C(=O)N1CCCCCCC1 sits at 0.1 or higher.
F

Assess whether reported z-score for CO[C@H]1O[C@H](CO)[C@@H](OC(=O)Nc2ccc3c(c2)OCO3)[C@H](OC(=O)Nc2ccccc2-c2ccccc2)[C@@H]1OC(=O)Nc1ccccc1-c1ccccc1 sits at 0.1 or higher.
F

Assess whether reported z-score for CC(C)c1ccc(NN2C(C(O)c3ccc4c(c3)OCO4)C=CC3C(=O)N(c4ccccc4)C(=O)C32)cc1 (configuration not stated) sits at 0.1 or higher.
F

Assess whether reported z-score for CC(=O)OC[C@H]1O[C@@H](ON=C[C@@H](C)[C@H](OCc2ccccc2)C(C)C)[C@H](OC(C)=O)[C@@H](OC(C)=O)[C@@H]1OC(C)=O sits at 0.1 or higher.
T

Assess whether reported z-score for CCCC[C@H]1OB(O)C[C@H]2C1=C(C)C[C@H]1C(=O)N(C)C(=O)[C@H]12 sits at 0.1 or higher.
F

Assess whether reported z-score for CC(CCN1CCc2nc(-c3ccccc3)c(-c3ccccc3)cc2C1)=NO[C@@H](C)c1cn([C@H](CO)Cc2ccccc2)nn1 sits at 0.1 or higher.
T

Query compound follows.
Assess whether reported z-score for O=C1[C@H]2[C@H]3[C@H](O)[C@H](O)CC(=NO[C@@H]4O[C@H](CO)[C@@H](O)[C@H](O)[C@H]4O)[C@H]3CC[C@H]2C(=O)N1Cc1ccccc1 sits at 0.1 or higher.
F

----------
Below, each entry is listed with its recorded composite z-score.
# TEST_SYSTEM: Concanavalin-A (Canavalia ensiformis)
# PROCEDURE_DETAILS: ConA small-molecule binders, primary screen, artefact control for SMM control protein annotation, biochemical, small-molecule microarray, Alexa647 label, 635 nm (AID 1127);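 further: z combines 667 nm emission intensity with signal-to-noise across three replicate slides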
# SETTINGS: ConA-A647 binding fluorescence, higher = more signal
Enter a number only.

Form: compound = CC(CCN1CCCCc2nc(C)c(C)cc21)=NOC(C)CN1CCCc2nc(C)c(C)cc21 (stereo not drawn) ; composite z-score = 1.14

***
Form: compound = O=C1[C@H]2[C@H]3[C@H](O)[C@H](O)CC(=NO[C@@H]4O[C@H](CO)[C@@H](O)[C@H](O)[C@H]4O)[C@H]3CC[C@H]2C(=O)N1Cc1ccc2c(c1)OCO2 ; composite z-score = 0.619

Form: compound = CO[C@@H]1COC(=O)CC=C[C@@H](C)COC(=O)[C@H](COCc2ccccc2)NC(=O)CC=C[C@H]1C ; composite z-score = -2.62

Form: compound = O=C1C2=CC[C@H]3C(=O)N(Cc4ccc5c(c4)OCO5)C(=O)[C@H]3[C@H]2[C@H](O)[C@@H]2O[C@H]12 ; composite z-score = 0.534

Form: compound = COC(=O)[C@@H]1CCCN1C(=O)[C@@H](C)CO ; composite z-score = 0.873

Form: compound = C=C(/C(=C/C[C@@H](OC(=O)c1ccncc1)c1ccc(OCCO)cc1)c1cnc2ccccc2c1)C(C)C ; composite z-score = 1.08

Form: compound = CC(C)OC(=O)C=C1C[C@@H](c2ccc(C#N)cc2)O[C@@H](c2ccc(C#N)cc2)O1 ; composite z-score = 1.15

Form: compound = CCCCCN1CC=CC23O[C@@H]4C=CCOC(=O)[C@@H]4[C@H]2C(=O)N(CCCCCCO)[C@@H]3C1=O (stereo partly drawn) ; composite z-score = -0.367

Data provenance is PubChem BioAssay.
